- method.notes: Inhibition of human TERT expression in H1299 cells at 1 uM after 24 hrs by secreted alkaline phosphatase reporter gene assay relative to control; values are per cent of control
- measurement.setup: NCI-H1299
The following compounds are shown together with reported level, % of control values.
Give just the numeric value; % need not be written.

Consider the reported level, % of control for these compounds:
# compound, metric, endpoint.result
rows = [
    ("COC(=O)CNCC(=O)Nc1cccc2c1C(=O)c1c(NC(=O)CNCC(=O)OC)cccc1C2=O", "level, % of control", 111),
    ("COC(=O)[C@@H](NCC(=O)Nc1cccc2c1C(=O)c1c(NC(=O)CN[C@H](C(=O)OC)c3ccccc3)cccc1C2=O)c1ccccc1", "level, % of control", 97),
    ("COC(=O)[C@@H](NCC(=O)Nc1cccc2c1C(=O)c1c(NC(=O)CN[C@H](C(=O)OC)C(C)C)cccc1C2=O)C(C)C", "level, % of control", 100),
]

Reported level, % of control for CNCCC(=O)Nc1cccc2c1C(=O)c1c(NC(=O)CCNC)cccc1C2=O was 101

Reported level, % of control for O=C(CCNCc1cc(F)cc(F)c1)Nc1cccc2c1C(=O)c1c(NC(=O)CCNCc3cc(F)cc(F)c3)cccc1C2=O was 98

Reported level, % of control for CCCN(CCC)CC(=O)Nc1cccc2c1C(=O)c1c(NC(=O)CN(CCC)CCC)cccc1C2=O was 105

Reported level, % of control for COC(=O)[C@H](NCC(=O)Nc1cccc2c1C(=O)c1c(NC(=O)CN[C@@H](C(=O)OC)C(C)C)cccc1C2=O)C(C)C was 91

Reported level, % of control for CC(C)(C)OC(=O)NCCNCCC(=O)Nc1cccc2c1C(=O)c1c(NC(=O)CCNCCNC(=O)OC(C)(C)C)cccc1C2=O was 100

Reported level, % of control for COC(=O)[C@H](CCSC)NCC(=O)Nc1cccc2c1C(=O)c1c(NC(=O)CN[C@@H](CCSC)C(=O)OC)cccc1C2=O was 105

Reported level, % of control for CCN(CC)CCC(=O)Nc1cccc2c1C(=O)c1c(NC(=O)CCN(CC)CC)cccc1C2=O was 99

Reported level, % of control for COC(=O)CN(C)CC(=O)Nc1cccc2c1C(=O)c1c(NC(=O)CN(C)CC(=O)OC)cccc1C2=O was 106

Reported level, % of control for CC(C)NCCC(=O)Nc1cccc2c1C(=O)c1c(NC(=O)CCNC(C)C)cccc1C2=O was 106

Reported level, % of control for CCN(C)CCC(=O)Nc1cccc2c1C(=O)c1c(NC(=O)CCN(C)CC)cccc1C2=O was 110

Reported level, % of control for CC(C)CNCCC(=O)Nc1cccc2c1C(=O)c1c(NC(=O)CCNCC(C)C)cccc1C2=O was 96

Reported level, % of control for O=C1c2c(O)ccc(O)c2C(=O)c2c(NCCNCCO)ccc(NCCNCCO)c21 [MITOXANTRONE] was 20

Reported level, % of control for COC(=O)[C@@H]1CCCN1CC(=O)Nc1cccc2c1C(=O)c1c(NC(=O)CN3CCC[C@H]3C(=O)OC)cccc1C2=O was 87

Reported level, % of control for CC(C)NCC(=O)Nc1cccc2c1C(=O)c1c(NC(=O)CNC(C)C)cccc1C2=O was 103

---

- method.notes: Cytotoxicity against human H1299 cells assessed as cell growth at 10 uM after 48 hrs by MTT assay
- Type: functional
- measurement.setup: NCI-H1299, 48 h, read-out: Activity
The following molecules are shown together with reported growth at 10 µM values.
Give just the numeric value; % need not be written.

# smiles.string, growth at 10 µM / %
records = [
    ("COC(=O)[C@H](C)NCC(=O)Nc1cccc2c1C(=O)c1c(NC(=O)CN[C@@H](C)C(=O)OC)cccc1C2=O", 104),
    ("CN(C)CCC(=O)Nc1cccc2c1C(=O)c1c(NC(=O)CCN(C)C)cccc1C2=O", 24),
    ("COC(=O)[C@@H]1CCCN1CC(=O)Nc1cccc2c1C(=O)c1c(NC(=O)CN3CCC[C@H]3C(=O)OC)cccc1C2=O", 104),
    ("CC(C)CNCC(=O)Nc1cccc2c1C(=O)c1c(NC(=O)CNCC(C)C)cccc1C2=O", 44),
    ("CCN(C)CC(=O)Nc1cccc2c1C(=O)c1c(NC(=O)CN(C)CC)cccc1C2=O", 101),
    ("CC(C)NCC(=O)Nc1cccc2c1C(=O)c1c(NC(=O)CNC(C)C)cccc1C2=O", 86),
]

Reported growth at 10 µM for COC(=O)[C@@H](NCC(=O)Nc1cccc2c1C(=O)c1c(NC(=O)CN[C@H](C(=O)OC)c3ccccc3)cccc1C2=O)c1ccccc1 was 59

Reported growth at 10 µM for COC(=O)[C@H](CCSC)NCC(=O)Nc1cccc2c1C(=O)c1c(NC(=O)CN[C@@H](CCSC)C(=O)OC)cccc1C2=O was 78

Reported growth at 10 µM for CCN(CC)CC(=O)Nc1cccc2c1C(=O)c1c(NC(=O)CN(CC)CC)cccc1C2=O was 78

Reported growth at 10 µM for CCNCC(=O)Nc1cccc2c1C(=O)c1c(NC(=O)CNCC)cccc1C2=O was 87

Reported growth at 10 µM for CCN(CC)CCC(=O)Nc1cccc2c1C(=O)c1c(NC(=O)CCN(CC)CC)cccc1C2=O was 30

Reported growth at 10 µM for CCCN(CCC)CCC(=O)Nc1cccc2c1C(=O)c1c(NC(=O)CCN(CCC)CCC)cccc1C2=O was 99
